Tested on: Staphylococcus aureus
Conditions: Concentration 20 uM; ASSAY_TEST Inhibition of Bacterial Growth; detection method Absorption (OD600); MEDIA CAMHB; plate type 384well; NBS; CORNING #3640; time 18 hr
Description: Antibacterial activity against Staphylococcus aureus MRSA ATCC 43300 (CO-ADD:GP_020); MIC in CAMBH media, using NBS plates, by OD(600)
Results with a measured potency or affinity are listed apart.
Here the recorded Inhibition is given for each entry.
Field: numeric (%). Do not append units.

Recorded results for 10 compounds are shown here.
>>> df
                                   compound            test_target  units_of_measure  value_observed
0  COc1ccc(C2CC(c3cccs3)=NN2C(=O)c2ccco2)cc1OC (configuration not stated)  Staphylococcus aureus                 %           19.66
1                    Nc1cccnc1Nc1ccc(Cl)cc1  Staphylococcus aureus                 %            2.93
2   COc1ccc2nc(C)cc(OCC(=O)Nc3ccccc3OC)c2c1  Staphylococcus aureus                 %            18.5
3  O=[N+]([O-])c1cn2c(n1)OC[C@@H](OCc1ccc(OC(F)(F)F)cc1)C2  Staphylococcus aureus                 %           14.36
4  CC(=O)Nc1ccc(-c2noc(CC3CCCN(Cc4cccc(F)c4C)C3)n2)cc1 (configuration not stated)  Staphylococcus aureus                 %           14.07
5  Cl.c1ccc(Oc2ccc(-c3cc(N4CCNCC4)[nH]n3)cc2)cc1  Staphylococcus aureus                 %           14.57
6  FC(F)(F)c1cc(NCCc2ccccc2)nc(-c2ccccn2)n1  Staphylococcus aureus                 %           -9.89
7  CNC(=O)C1Cc2c([nH]c3cc(Cl)ccc23)C2(CCN(CCc3ccccc3)CC2)N1 (configuration not stated)  Staphylococcus aureus                 %           24.47
8  c1ccc(Oc2ccc(-c3cc(C4CCOCC4)[nH]n3)cc2)cc1  Staphylococcus aureus                 %           24.63
9  O=C(NC1CCN(c2ccnc3ccccc23)C1)c1cccc(C(F)(F)F)c1 (configuration not stated)  Staphylococcus aureus                 %            10.7

What value of Inhibition has been reported for the following compound? `CCc1ccc(S(=O)(=O)Nc2cc(CN3CCN(CCC(C)C)CC3)ccc2C)cc1`
21.02

Entry under review: `COc1cccn2c(C(=O)N3CCCCC3)c(C(F)(F)F)nc12` . Reported Inhibition?
18.98

Quick one: Inhibition for `COc1cccc(NC(=O)c2c(NC(=O)c3cccnc3)sc3c2CCC3)c1` ?
17.01

Entry `N#CCN(CCCCN1CCN(c2ccc(F)cc2)CC1)C(=O)OCc1ccccc1` : reported Inhibition = ?
23.36

Would you mind telling me what Inhibition value was observed for `CCc1nc2ccc(Cl)cn2c1C(=O)NCc1ccc(N2CCC(c3ccc(OC(F)(F)F)cc3)CC2)cc1` ?
17.2

Form field: reported Inhibition of `CCOC(=O)c1cc(-c2csc(Nc3c(C)cc(C)cc3C)n2)on1`
5.55

# get_value(readout='Inhibition', item= `Clc1ccc(-n2cc(COc3ccnc4ccccc34)nn2)cc1` )
21.12

Query: Inhibition; subject: `O=C(c1cc2ccccc2o1)N1CCN(Cc2ccc3c(c2)OCO3)CC1`
8.69

Given the entry `NC(=O)c1cc(-c2ccsc2)ccc1OCCOc1ccccc1` , report its measured Inhibition.
14.87

Reference source for all entries: ChEMBL document CHEMBL4513149
